assay: Selectivity index, ratio of CC50 for mock-infected human MT4 cells to EC50 for HIV1 3B infected in human MT4 cells; type: toxicity, cell-based; conditions: mock-infected (CC50) and HIV-1 3B infected (EC50)
measured attribute: selectivity ratio

Below: 5 molecules and their reported selectivity ratio.
Problem: For the molecule COC(=O)c1ccsc1NC(=O)CSc1[se]nnc1-c1ccc(Cl)c(Cl)c1 , give its reported selectivity ratio.
Result: < 1

Problem: For the molecule O=C(CSc1[se]nnc1-c1ccc(Cl)c(Cl)c1)Nc1nccs1 , give its reported selectivity ratio.
Result: < 1

Problem: For the molecule Cc1ccc(NC(=O)CSc2[se]nnc2-c2ccc(Cl)c(Cl)c2)c([N+](=O)[O-])c1 , give its reported selectivity ratio.
Result: 5

Problem: For the molecule O=C(CSc1[se]nnc1-c1ccc(Cl)c(Cl)c1)Nc1ccccc1 , give its reported selectivity ratio.
Result: 63

Problem: For the molecule O=C(CSc1[se]nnc1-c1ccc(Cl)c(Cl)c1)Nc1ccccc1Br , give its reported selectivity ratio.
Result: < 1

Here's the next entry for you.
Problem: For the molecule O=C(CSc1[se]nnc1-c1ccc(Cl)c(Cl)c1)Nc1ccc(Cl)cc1 , give its reported selectivity ratio.
Result: 3
